This section presents compounds with their documented ED (20 mm Hg) values.
system: pithed rats; test: In vivo study in pithed rats, blood pressure; set-up: species or system rat (Sprague-Dawley); details: Rattus norvegicus, iv, tertatolol pretreated, without prazosin or yohimbine, read-out: C20 Control (concentration that increases the pressure by 20 mm Hg)
Output spec: scalar in mg/kg, unitless text.

A selection of reference data follows.
Compound: COc1ccc2c(c1OC)CCC1(CNC=N1)C2 (stereo not drawn)
ED (20 mm Hg) [mg/kg]: 0.137
--
Compound: C1=NC2(CCc3ccccc3C2)CN1 (stereo not drawn)
ED (20 mm Hg) [mg/kg]: 0.004
--
Compound: Cc1ccc2c(c1)C[C@@]1(CC2)CNC=N1
ED (20 mm Hg) [mg/kg]: 0.0068

Dear colleague, I am looking for the recorded ED (20 mm Hg) of the following compound: CC(C)Oc1ccc2c(c1)CCC1(CNC=N1)C2 (stereo not drawn)
0.068

Field entry: COc1cc2c(cc1O)CCC1(CNC=N1)C2 (stereo not drawn)
0.0009

Moving on to the next compound: Cc1ccc2c(c1)CC1(CC2)CNC=N1 (stereo not drawn)
0.03
